target: soluble human FcγRIIa ectodomain (human); assay: SPR (Biacore T200), mAb on Protein G chip, soluble FcγR ectodomain as analyte
Outcome measure: Kd (nM)

P: human IgG1 Fc variant printed 'GAALIE' in the second such row of Table 9 (r13) (antibody)
Q: human IgG1 Fc variant: GAALIE (antibody)
Task: Problem: Given the entries P and Q , determine which has the lower reported Kd. Output the label that corresponds to your choice.
Output: P
(P: 186 nM, Q: 387 nM)

----------
target: soluble human FcγRIIIa ectodomain (human) (UniProt P08637); test: SPR (Biacore T200), mAb on Protein G chip, soluble FcγR ectodomain as analyte
pKd: −log10 of the molar value.
Outcome measure: pKd

P: human IgG1 Fc variant printed 'GAALIE' in the second such row of Table 9 (r13) (antibody)
Q: human IgG1 Fc variant: GAALIE (antibody)
Task: Higher pKd: P or Q ? Output the label that corresponds to your choice.
Output: Q
(Q: 6.66, P: 6.04)
